Provide the reported GI50 of each item.
System: SK-OV-3
Assay Protocol: NCI tumour cell line growth inhibition, 48 h
The source made the active and inactive calls. Rule as the data show it: active = GI50 up to about 1.1 µM and inactive = higher.

COC(=O)CCC(NC(=S)N/N=C(\C)c1nccs1)C(=O)OC (centres undefined) ... > 100 µM (inactive)

Quick one: give me GI50 for each item below, same order please.
1. CC1c2cc(c3c(c2O)CN([C@@H](C)C2CCCCC2)CO3)C(C)c2cc(c3c(c2O)CN([C@@H](C)C2CCCCC2)CO3)C(C)c2cc(c3c(c2O)CN([C@@H](C)C2CCCCC2)CO3)C(C)c2cc1c1c(c2O)CN([C@@H](C)C2CCCCC2)CO1 (some centres undefined)
2. CCCCCC(/C=C/c1ncccc1OCCCCCC(=O)O)=N\NC1=NCCN1
3. CC(CN1CCN(CC(C)Nc2ccnc3cc(Cl)ccc23)CC1)Nc1ccnc2cc(Cl)ccc12 (centres undefined)
4. O=C(N/C(=C/c1ccc(Cl)cc1)c1nc2ccccc2c(=O)n1Nc1ccc([N+](=O)[O-])cc1[N+](=O)[O-])c1ccccc1

Reply:
1.48 µM (inactive)
> 100 µM (inactive)
34 µM (inactive)
> 100 µM (inactive)

* * *

System: HOP-92
Assay Protocol: NCI tumour cell line growth inhibition, 48 h
The source made the active and inactive calls. No stated cut-off is given here; in the data, active = GI50 up to about 1.1 µM and inactive = higher.
Provide the reported GI50 of each item.

Recorded GI50, per entry:
COc1cc(C/C=C/c2ccccc2)c(OC)cc1O ... 15.4 µM (inactive)
CCc1ccc(COC(=O)C2=C(C)NC(C)=C(C(=O)OCc3ccc(CC)cn3)C2C2=COCCO2)nc1 ... 20.7 µM (inactive)
COC(=O)C(=O)Nc1cc2c3c(c1)Oc1cccc4c1C3(C)c1c(cccc1O2)O4 ... 72.6 µM (inactive)
CCOP(=O)(OCC)C(Nc1ccc(C(=O)O)cc1)c1ccc(C(Nc2ccc(C(=O)O)cc2)P(=O)(OCC)OCC)cc1 (stereo not given) ... > 100 µM (inactive)

Task item: I'd like to know its GI50. The compound in question is `O=C(NCCCl)O/N=C/c1cccnc1`
Reply: > 100 µM (inactive)

* * *

Test system: EKVX
Assay Protocol: NCI tumour cell line growth inhibition, 48 h
Active and inactive are the calls of the source. Cut-off read from the data, not from the text of the source: active = GI50 up to about 1.1 µM and inactive = higher.
Respond using exactly one of the listed classes: active, inactive

Worked set:
COc1cc(C(=O)C2CC3(CCC2(O)c2cc(OC)c(OC)c(OC)c2)CC(=O)Nc2ccccc2C3=O)cc(OC)c1OC (centres undefined) ... inactive
CO[C@H]1C[C@H](O[C@H]2CC[C@@]3(C)[C@H](CC[C@@H]4[C@@H]3CC[C@]3(C)[C@@H](C5=CC(=O)OC5)CC[C@]43O)C2)O[C@H](C)[C@H]1O ... active
O=C(Cc1nc2ccccc2s1)C(=O)Nc1cccc(C(F)(F)F)c1 ... inactive

Task item: Recorded test outcome, item CC1CNC(c2cccc(-c3nc(-c4cccc(C5=NC(C)CN5)c4)nc(N(C)C)n3)c2)=N1 (centres undefined)
Reply: inactive

Task item: Recorded test outcome, item `CC1(C)NC(C)(C)/C(=N\O)C(=NO)/C1=N/O`
Reply: inactive

Task item: Recorded test outcome, item C=CC1(C)CCC2=C(CCC3C(C)(C(=O)OC)CCCC23C)C1=O (centres undefined)
Reply: inactive

Task item: Recorded test outcome, item `N=C(N)NS(=O)(=O)c1ccc(NCc2c3ccccc3nc3ccccc23)cc1`
Reply: inactive

Task item: Recorded test outcome, item `CC1=C(C(=O)NCc2ccccc2)C(c2ccco2)C(C(=O)NCc2ccccc2)=C(C)N1`
Reply: inactive

Task item: Recorded test outcome, item C=CCN1C(=O)CC1N(CC=C)S(=O)(=O)c1ccc(C)cc1 (centres undefined)
Reply: inactive

* * *

Test system: HOP-62
Assay Protocol: NCI tumour cell line growth inhibition, 48 h
Active and inactive are the calls of the source. Cut-off read from the data, not from the text of the source: active = GI50 up to about 1.1 µM and inactive = higher.
Provide the reported GI50 of each item.

Recorded GI50, per entry:
CCOC(=O)c1sc2nc(SC)nc3c2c1NC(=O)CN3c1cccc(F)c1 ... 14.5 µM (inactive)
Cn1c(=O)c2nc3c(=O)n(C)c(=O)n(CC(N)=O)c3nc2n(C)c1=O ... > 100 µM (inactive)
CC(NC(=O)C(N)CC(=O)O)NC(=O)N1CCOCC1 (stereo not given) ... > 100 µM (inactive)
C=C(Cl)/C(=C\Br)CCC(Cl)C(C)C.C=C(Cl)/C(=C\Cl)CCC(Cl)C(C)C (stereo not given) ... 18.3 µM (inactive)

Kindly consider the entry below.
Task item: I'd like to know its GI50. The molecule in question is `C/C(=N\Nc1ccccc1Br)c1cccc(/C(C)=N/Nc2ccccc2Br)n1`
Reply: 49.8 µM (inactive)

* * *

Test system: NCI/ADR-RES
Assay Protocol: NCI tumour cell line growth inhibition, 48 h
Activity calls are given as the source filed them. Rule as the data show it: active = GI50 up to about 1.1 µM and inactive = higher.
Respond using exactly one of the listed classes: class 1 (active), class 0 (inactive)

Worked set:
COc1cc2nc(-c3cccs3)oc(=O)c2cc1OC ... class 0
CCOc1ccc(N/C(=C(/C(Cl)=C(/Cl)Nc2ccccc2)[N+](=O)[O-])n2nnc3ccccc32)cc1 ... class 0
CCCCC(=O)/C=c1/cc(C)[nH]c2cccc3cnn1c32 ... class 0
CN(C)c1nc(-c2ccccc2)c(C(=O)c2c[nH]c3ccccc23)s1 ... class 0
C/C(Cl)=N\OC(=O)Nc1ccc(C)cc1 ... class 0

Task item: Recorded test outcome, item `COCCOCN(C(=O)C1=CCC2(CC1)OCCO2)c1ccccc1I`
Reply: class 0

Task item: Recorded test outcome, item CCCCCCCCCCCCCCCCCCNc1ccn(C2OC(COP(=O)(O)OCC3OC(n4ccc(N)nc4=O)C(O)C3O)C(O)C2O)c(=O)n1 (stereo not given)
Reply: class 0

Task item: Recorded test outcome, item O=C1/C(=C\c2cccc(Oc3ccccc3)c2)SC(c2ccccc2)N1c1cc(Cl)ccc1Cl (stereo not given)
Reply: class 0

Task item: Recorded test outcome, item C/C=C(\C)C(=O)OC1C2C(C)=CC(=O)C(O)C2(C)C2C3(O)OCC24C1OC(=O)C(OC(C)=O)C4C(C)C3O (stereo not given)
Reply: class 1

Task item: Recorded test outcome, item `Oc1ccc(C(=C(Br)c2ccccc2)c2ccc(O)cc2)cc1`
Reply: class 0

* * *

Tested on: SF-295
Assay Protocol: NCI tumour cell line growth inhibition, 48 h
The source made the active and inactive calls. Cut-off read from the data, not from the text of the source: active = GI50 up to about 1.1 µM and inactive = higher.
Respond using exactly one of the listed classes: 1.0 (active), 0.0 (inactive)

Worked set:
CCCCCCCCCCCCOCCCOP(=O)([O-])OCC[N+](C)(C)C ... 0.0
CCC(=O)OCN(C)c1nc(N(C)COC(=O)CC)nc(N(C)COC(=O)CC)n1 ... 0.0
COc1cc(OC2OC(CO)C(O)C(O)C2O)c2c(O)c3c(=O)cc(C)oc3cc2c1 (stereo not given) ... 0.0
NC(=S)NNC(=O)CCC(=O)Nc1ccc(Cl)cc1Cl ... 0.0
CCC1(O)CC(O)c2c(O)c3c(c(O)c2C1C(=O)OC)C(=O)c1cccc(O)c1C3=O (stereo not given) ... 0.0
CCCCCC(/C=C/c1ncccc1OCCCCCC(=O)O)=N\NC1=NCCN1 ... 0.0
CC(=O)OCCOCn1cnc2c(Cl)nc(Cl)nc21 ... 0.0
CN(C)c1cccc(/C=C(\C#N)c2ccccc2)c1 ... 1.0
O=C1C(CN2CCCCC2)CCCC1CN1CCCCC1 (stereo not given) ... 0.0
Cc1ccc(C(=O)C2C=C(c3ccc(C)cc3)SC3C=CCC32)cc1 (stereo not given) ... 0.0

Task item: Recorded test outcome, item CC(NNC(=O)c1cc[n+]([BH2-]C#N)cc1)c1ccc(Cl)cc1Cl (stereo not given)
Reply: 0.0

Task item: Recorded test outcome, item `CC(=O)/C(=C/NC(=S)Nc1ccc(Cl)c(Cl)c1)C(=O)Nc1ccccc1C`
Reply: 0.0

* * *

Tested on: RXF 631
Assay Protocol: NCI tumour cell line growth inhibition, 48 h
The source made the active and inactive calls. Cut-off read from the data, not from the text of the source: active = GI50 up to about 1.1 µM and inactive = higher.
Recorded Metric: GI50

N#C/C(=C\c1cccc(O)c1)C(N)=O ... > 100 µM (inactive)

Quick one: give me GI50 for each item below, same order please.
1. Nc1nc(CCc2n[nH]c(N)n2)n[nH]1
2. Cc1ccccc1C1=[N+]([O-])c2ccc(Cl)cc2C1=O

Reply:
> 100 µM (inactive)
3.72 µM (inactive)

* * *

Provide the reported GI50 of each item.
Test system: BT-549
Assay Protocol: NCI tumour cell line growth inhibition, 48 h
The source made the active and inactive calls. Cut-off read from the data, not from the text of the source: active = GI50 up to about 1.1 µM and inactive = higher.

O=C1CC2(CCC(O)(c3cccc4ccccc34)C(C(=O)c3cccc4ccccc34)C2)C(=O)c2ccccc2N1 (centres undefined) ... 46.7 µM (inactive)
COc1ccc(/C=C/c2cc(O)cc(OC3OC(CO)C(O)C(O)C3O)c2)cc1O (centres undefined) ... > 100 µM (inactive)
CCCCCCCCCCCCCCCCOCC(Cl)COP(=O)(O)OP(=O)(O)OCC1OC(n2cnc3c(N)ncnc32)C(O)C1O (centres undefined) ... > 100 µM (inactive)

Quick one: give me GI50 for each item below, same order please.
1. CC1=CC2(C)C=C[C@@H]1C(=O)[C@@]1(C)CC[C@@](O)(C(C)C)[C@H]1CC2
2. CCc1nc2c(c(N(C)C)c1C(=O)OC)CCc1ccccc1-2
3. COc1ccc(CCc2ccc3c(c2)OCO3)cc1
4. C=C1c2nc3ccccc3n2C=C(c2ccccc2)N1c1ccccc1
5. CCOc1ccc(N/C(=C(/C(Cl)=C(/Cl)Nc2ccccc2)[N+](=O)[O-])n2nnc3ccccc32)cc1
6. CC(=O)/C(=C/NC(=S)Nc1ccc(Cl)c(Cl)c1)C(=O)Nc1ccccc1C

Reply:
1. 33.8 µM (inactive)
2. 35 µM (inactive)
3. 62.5 µM (inactive)
4. 24.5 µM (inactive)
5. 13.3 µM (inactive)
6. 25.5 µM (inactive)
